Data provenance: PubChem BioAssay (NCI)

- System: MDA-MB-435 melanoma
- ASSAY INFO: NCI-60 one-dose screen, 48 h
- EXPERIMENTAL SETUP: 10 µM unless noted
This is part of a sample that, as a whole, favours compounds with a hit. Of some 83,000 tested, about 20% had one in any assay. The source made the active and inactive calls. Rule for the calls: active = growth percent below 10; inactive = the rest.
Parameter call: string, one of active, inactive

Q: Returns: the outcome recorded for COc1cc(CNC(=O)C[C@H](C)CCC=C(C)C)ccc1OCc1cn(-c2ccc(Br)cc2)nn1 in this assay.
A: inactive

Q: Returns: the outcome recorded for COc1ccccc1/C=C/c1cccc(NC(=S)NCCCCN(C)C)c1 in this assay.
A: active

Q: Returns: the outcome recorded for Cc1ccc(C(=O)Nc2cc(-n3ccnc3C)cc(C(F)(F)F)c2)cc1C#Cc1cnc2cccnn12 in this assay.
A: active

Q: Returns: the outcome recorded for CC[C@@]12CC(C(=O)OC)=C3Nc4cc5c(cc4[C@@]34CCN(C[C@H]3O[C@H]31)[C@@H]24)[C@@H]1[C@H](O5)[C@@H](O)[C@@]2(CC)CC(C(=O)OC)=C3Nc4cc(O)ccc4[C@@]34CCN1[C@@H]24 in this assay.
A: active

Q: Returns: the outcome recorded for O=C1/C(=C/c2cccc3c2OCO3)Cc2c(F)cc(Br)cc21 in this assay.
A: inactive

Q: Returns: the outcome recorded for N#C/C(=C1/C(=O)Nc2ccccc21)c1nnc(NC(=O)c2ccc(-n3c(=O)[nH]c4ccccc4c3=O)cc2)s1 in this assay.
A: active

Q: Returns: the outcome recorded for COC(=O)c1ccc(-c2c(-c3ccccc3)c(F)c3oc(C(=O)OC)c(N)c3c2-c2ccccc2)cc1 in this assay.
A: inactive

Q: Returns: the outcome recorded for Clc1ccc(CNc2nc(SCCN3CCOCC3)nc3c2cnn3CC(Cl)c2ccc(Br)cc2)cc1 (configuration not stated) in this assay.
A: inactive

Q: Returns: the outcome recorded for S=C(Nc1ccc(OCc2nc3ccc(Cl)cc3[nH]2)cc1)NC1CCCCC1 in this assay.
A: active

Q: Returns: the outcome recorded for COc1ccccc1Nc1nnc(-c2c[nH]c3ccccc23)o1 in this assay.
A: active

Q: Returns: the outcome recorded for COc1ccc2[nH]cc(-c3cc4nc(-c5cn(C)c6ncc(Br)cc56)cc(N)n4n3)c2c1 in this assay.
A: active

Q: Returns: the outcome recorded for O=C(OCCOCCO)N(c1cccc(Br)c1)c1nc(SCCN2CCOCC2)nc2c1cnn2CC(Cl)c1ccc(Br)cc1 (configuration not stated) in this assay.
A: active

Q: Returns: the outcome recorded for O=C(c1ccc(Cl)cc1)C1[C@H](c2ccccc2Cl)[C@@H](c2ccccc2)NC12C(=O)Nc1ccc(Br)cc12 (some centres not stated) in this assay.
A: active

Q: Returns: the outcome recorded for COc1ccc2[nH]c(=O)c(CSc3ccccc3Nc3nccc(-c4ccc(Cl)cc4)n3)cc2c1 in this assay.
A: inactive

Q: Returns: the outcome recorded for O=C(Nc1ccc(-c2ccc3c(c2)NC(=O)/C3=C\c2ccc[nH]2)cc1)Nc1ccc(Cl)c(Cl)c1 in this assay.
A: inactive

Q: Returns: the outcome recorded for O=C1CCC(N2C(=O)c3cccc(NCCCCCC(=O)N4CCN(c5ccc6nc7c(nc6c5C(F)(F)F)C(=O)c5ncccc5C7=O)CC4)c3C2=O)C(=O)N1 (configuration not stated) in this assay.
A: active

Q: Returns: the outcome recorded for Cc1ccc(Cl)cc1NC(=O)N/C(N)=N/c1nc2ccccc2s1 in this assay.
A: active
